molecular target: CD33 (Sino Biological, Cat #12238-H08H) (UniProt P20138 18-259); test: BLI, IgG captured on anti-human Fc sensor, 50 nM CD33, pH 7.4 vs pH 5.0
Sequence (P20138 18-259 limits assumed): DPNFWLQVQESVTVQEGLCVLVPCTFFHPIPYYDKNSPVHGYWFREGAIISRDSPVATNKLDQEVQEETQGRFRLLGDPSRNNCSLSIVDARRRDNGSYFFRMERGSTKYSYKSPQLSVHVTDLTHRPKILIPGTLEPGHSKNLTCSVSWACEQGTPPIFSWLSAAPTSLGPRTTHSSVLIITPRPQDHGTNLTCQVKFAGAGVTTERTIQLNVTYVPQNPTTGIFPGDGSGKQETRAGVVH

- binder: "MYT0512 (antibody, V domains shown, IgG; gemtuzumab VH variant #31 (N100H)) VH: EVQLVQSGAEVKKPGSSVKVSCKASGYTITDSNIHWVRQAPGQSLEWIGYIYPYNGGTDYNQKFKNRATLTVDNPTNTAYMELSSLRSEDTDFYYCVNGHPWLAYWGQGTLVTVSS VL: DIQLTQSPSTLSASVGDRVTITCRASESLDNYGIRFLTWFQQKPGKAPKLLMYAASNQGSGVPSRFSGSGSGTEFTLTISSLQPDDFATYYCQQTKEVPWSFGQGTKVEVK"
  binding result: "binds"
- binder: "MYT0515 (antibody, V domains shown, IgG; gemtuzumab VH variant #34 (L103H)) VH: EVQLVQSGAEVKKPGSSVKVSCKASGYTITDSNIHWVRQAPGQSLEWIGYIYPYNGGTDYNQKFKNRATLTVDNPTNTAYMELSSLRSEDTDFYYCVNGNPWHAYWGQGTLVTVSS VL: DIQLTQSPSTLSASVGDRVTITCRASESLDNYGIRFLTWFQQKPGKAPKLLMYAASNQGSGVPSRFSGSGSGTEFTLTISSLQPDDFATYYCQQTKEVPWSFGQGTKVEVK"
  binding result: "binds"
- binder: "MYT0498 (antibody, V domains shown, IgG; gemtuzumab VH variant #17 (G56H)) VH: EVQLVQSGAEVKKPGSSVKVSCKASGYTITDSNIHWVRQAPGQSLEWIGYIYPYNHGTDYNQKFKNRATLTVDNPTNTAYMELSSLRSEDTDFYYCVNGNPWLAYWGQGTLVTVSS VL: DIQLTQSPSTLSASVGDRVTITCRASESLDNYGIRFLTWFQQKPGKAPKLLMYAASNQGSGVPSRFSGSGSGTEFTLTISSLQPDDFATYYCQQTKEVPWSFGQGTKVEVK"
  binding result: "binds"
